experiment-description: in vivo
condition-notes: male, beagle, dog, iv, 125 mg/kg
parameter: AUC0-t (µg·h/mL)
Please respond with the number in µg·h/mL and leave the unit unwritten.

Consider the molecule COC1=C(OC)C(=O)C(C/C=C(\C)CC/C=C(\C)CC/C=C(\C)CC/C=C(\C)CC/C=C(\C)CC/C=C(\C)CC/C=C(\C)CC/C=C(\C)CC/C=C(\C)CCC=C(C)C)=C(C)C1=O and give its measured AUC0-t.
12800

====

experiment-description: in vivo
condition-notes: female, beagle, dog, iv, 62.5 mg/kg
parameter: AUC0-t (µg·h/mL)
Please respond with the number in µg·h/mL and leave the unit unwritten.

Consider the compound COC1=C(OC)C(=O)C(C/C=C(\C)CC/C=C(\C)CC/C=C(\C)CC/C=C(\C)CC/C=C(\C)CC/C=C(\C)CC/C=C(\C)CC/C=C(\C)CC/C=C(\C)CCC=C(C)C)=C(C)C1=O and give its measured AUC0-t.
2920

====

experiment-description: in vivo
condition-notes: female, beagle, dog, iv, 125 mg/kg
parameter: AUC0-t (µg·h/mL)
Please respond with the number in µg·h/mL and leave the unit unwritten.

Consider the molecule COC1=C(OC)C(=O)C(C/C=C(\C)CC/C=C(\C)CC/C=C(\C)CC/C=C(\C)CC/C=C(\C)CC/C=C(\C)CC/C=C(\C)CC/C=C(\C)CC/C=C(\C)CCC=C(C)C)=C(C)C1=O [CoQ10, Coenzyme Q10] and give its measured AUC0-t.
12500

====

experiment-description: in vivo
condition-notes: male, beagle, dog, iv, 62.5 mg/kg
parameter: AUC0-t (µg·h/mL)
Please respond with the number in µg·h/mL and leave the unit unwritten.

Consider the compound COC1=C(OC)C(=O)C(C/C=C(\C)CC/C=C(\C)CC/C=C(\C)CC/C=C(\C)CC/C=C(\C)CC/C=C(\C)CC/C=C(\C)CC/C=C(\C)CC/C=C(\C)CCC=C(C)C)=C(C)C1=O and give its measured AUC0-t.
3350

====

experiment-description: in vivo
condition-notes: male, Sprague Dawley, rat, iv, 250 mg/kg
parameter: AUC0-t

Consider the compound COC1=C(OC)C(=O)C(C/C=C(\C)CC/C=C(\C)CC/C=C(\C)CC/C=C(\C)CC/C=C(\C)CC/C=C(\C)CC/C=C(\C)CC/C=C(\C)CC/C=C(\C)CCC=C(C)C)=C(C)C1=O [CoQ10, Coenzyme Q10] and give its measured AUC0-t.
16600 µg·h/mL

====

experiment-description: in vivo
condition-notes: female, Sprague Dawley, rat, iv, 62.5 mg/kg
parameter: AUC0-t (µg·h/mL)
Please respond with the number in µg·h/mL and leave the unit unwritten.

Consider the compound COC1=C(OC)C(=O)C(C/C=C(\C)CC/C=C(\C)CC/C=C(\C)CC/C=C(\C)CC/C=C(\C)CC/C=C(\C)CC/C=C(\C)CC/C=C(\C)CC/C=C(\C)CCC=C(C)C)=C(C)C1=O and give its measured AUC0-t.
2690

====

experiment-description: Non-GLP four-week toxicity/toxicokinetic study in macaques (Mannheimer Foundation Study 2010-01)
Format: in vivo, sub-adult male macaques
condition-notes: male, macaque, plasma; macaques, 31.25-125 mg/kg IV, first day of dosing
Description: Plasma samples for toxicokinetic analysis were collected pre-dose, and at 0.25, 1, 6, 24, and 48 hr postdose on the first day of dosing. Pre-dose, but no post-dose samples were collected on Days 7, 14, 21 and 29. […] The increases for Cmax were slightly greater than directly dose-proportional. The increases for AUC0-t were apparently substantially greater than directly dose-proportional, but the nonlinearity may be in part a reflection of the sampling schedule.
parameter: Tmax (min)
Please respond with the number in min and leave the unit unwritten.

Consider the compound COC1=C(OC)C(=O)C(C/C=C(\C)CC/C=C(\C)CC/C=C(\C)CC/C=C(\C)CC/C=C(\C)CC/C=C(\C)CC/C=C(\C)CC/C=C(\C)CC/C=C(\C)CCC=C(C)C)=C(C)C1=O and give its measured Tmax.
15
